# Tested target: T1, CRBN, Q96SW2;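 note: pooled lentiviral library of zinc finger degron-EGFP fusions in mCherry-positive Jurkat cells, FACS-sorted after compound exposure, with degron abundance counted by next-generation sequencing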
# T1 chain: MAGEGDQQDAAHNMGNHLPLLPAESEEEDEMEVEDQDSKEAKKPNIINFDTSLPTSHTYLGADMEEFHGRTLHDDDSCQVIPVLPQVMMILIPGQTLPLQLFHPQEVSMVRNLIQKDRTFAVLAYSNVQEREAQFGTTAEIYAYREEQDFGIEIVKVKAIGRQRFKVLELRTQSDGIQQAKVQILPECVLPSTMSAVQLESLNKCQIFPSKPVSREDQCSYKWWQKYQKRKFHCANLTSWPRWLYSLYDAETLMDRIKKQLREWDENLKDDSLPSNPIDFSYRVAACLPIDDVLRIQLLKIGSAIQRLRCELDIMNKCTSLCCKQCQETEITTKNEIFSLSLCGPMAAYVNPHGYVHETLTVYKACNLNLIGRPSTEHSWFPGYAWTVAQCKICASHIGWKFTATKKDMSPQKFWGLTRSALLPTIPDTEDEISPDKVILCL
# Method: log2 fold change of degron read counts, EGFP-low vs EGFP+ sorted cells (limma voom), compound-induced degradation; higher = more compound-induced degradation of the degron-EGFP fusion; degrons are variants of IKZF1/3 zinc finger 2; compound dose not given here
# Experimental context: Jurkat; 18 h; compound: compound 33 (diphenyl IMiD analogue)
The full ranking holds about 8,300 sequences; the median of “log2 fold change of degron read counts, EGFP-low vs EGFP+ sorted cells (limma voom), compound-induced degradation” is about -1.1, and the highest 2% start at about 3.2. The full list was thinned out, with the highest values kept by preference.
Binary call on log2 fold change of degron read counts: MET from 2 upward, NOT MET beneath that.

Qu. Test whether the sequence FCCPVCGATFTQKGNLLRHIKL [46F_47C_49P_50V_52G_53A_54T_55F_67L_, Q9UKT9] records log2 fold change of degron read counts of 2 or higher.
Ans. MET

Qu. Test whether the sequence FSCEICGAVFTQKGNLLRHIKL [46F_47S_49E_50I_52G_53A_54V_55F_67L_, Q9UKT9] records log2 fold change of degron read counts of 2 or higher.
Ans. MET

Qu. Test whether the sequence FFCPICGHGFTQKGNLLRHIKL [46F_47F_49P_50I_52G_53H_54G_55F_67L_, Q9UKT9] records log2 fold change of degron read counts of 2 or higher.
Ans. NOT MET

Qu. Test whether the sequence FDCPVCGATFTQKGNLLRHIKL [46F_47D_49P_50V_52G_53A_54T_55F_67L_, Q9UKT9] records log2 fold change of degron read counts of 2 or higher.
Ans. NOT MET

Qu. Test whether the sequence FMCPVCGATFTQKGNLLRHIKL [46F_47M_49P_50V_52G_53A_54T_55F_67L_, Q9UKT9] records log2 fold change of degron read counts of 2 or higher.
Ans. NOT MET
